Test system: MS2 coat protein
Test: apparent KD of MS2 coat protein; designed switch direction (-1 OFF switch, 1 ON switch): -1; higher = weaker reporter binding
Settings: input ligand: FMN 200 uM
TEST READOUT: apparent KD of MS2 coat protein

| RESIDUES | apparent KD of MS2 coat protein |
| --- | --- |
| AGCGCCAUCGUGAGAUGGCGUAUUACAUGAGGAUCACCCAUGUAGGAUAUCGAUUGCUUUGCAGUCGAGAAGGACAUGUUUUAG [JL ENG3 3.80 Mod E] (Eterna round: R96, puzzle: Exclusion NG 3) | 200 nM |
| GUUAUCGCAGGAUAUUAGUACUUGUACAUGAGGAUCACCCAUGUUUAUUGGGUCUAAGAAUAAGAAGGGCGAUGAA [JR_Ex5_Sub005] (Eterna round: R97, puzzle: Exclusion 5) | 105 nM |
| UCAUCGCAAGGAUAUACUUGCGGUGAUGUUCGAAUUCUUCUACUUGAGGAUCACCCAAGUAGAAGGUGCGAUGA [jl-ex2.4.63 ViennaUCT mod] (Eterna round: R97, puzzle: Exclusion 2) | 13.2 nM |
| UUGUUGUAUGUAGGAUAUGCGUAUUAUUAUUGGGCAGAAGGACAUGAGGAUCACCCAUGUAUGUUGUUGUUAUAUAUUAUAUAU [Title] (Eterna round: R96, puzzle: Exclusion NG 1) | 66.4 nM |
| UUCGUGUAAGGAUAUACGACCCAUCCCAUUGGGAUGGGCACGUAGAAGGUACAUGAGGAUCACCCAUGUGCUCC [Ceacequa] (Eterna round: R96, puzzle: Exclusion 4) | 298 nM |

Now look at this entry.
Challenge: Recall and state the measured apparent KD of MS2 coat protein for GCAAGCUUUUUGCGUAGGAACAUGAGGAUCACCCAUGUGCAUGGAAAGAUGGGAAAGAAAGGAGAGAAAGAUGAAAG [Alacar 1] (Eterna round: R97, puzzle: Sensor, turn-off variant 1) .
Response given: 101 nM

---

Tested on: MS2 coat protein
Test: apparent KD of MS2 coat protein; designed switch direction (-1 OFF switch, 1 ON switch): 1; higher = weaker reporter binding
Conditions: Eterna round: R95; input ligand: none
Would you mind telling me the reported apparent KD of MS2 coat protein of each entry?
Answers are plain numbers, in nM.

Below, each entry is followed by its recorded apparent KD of MS2 coat protein result.
| RESIDUES | QUANTITY UNIT | apparent KD of MS2 coat protein |
| --- | --- | --- |
| GGUCCAGCCUGAGCUGGACAAAAGCAUGUACAUGAGGAUCACCCAUGUUCAUGUACAAGCUUUUUGCUCGUCUUGCA [salish99_208a_r3_110x] (puzzle: Sensor for hsa-mir-208a) | nM | 706 |
| AACUAUCUAUCUCAGGAUAUCAUGUCAAAGACAUGAGGAUCACCCAUGUACCAGGAAACUGGUUAUGAGAAGGGAGAUAGAUAGA [Mat - Same State 2 - Mod - D38] (puzzle: Same State 2) | nM | 97 |
| GCGGAACAUGAGGAUCACCCAUGUAAAGGGUGUAAAGGAUAUUAUUGGGAGAAGGUAGGGUAAGAAGGUUGCUUGG [JR_SS1_Sub088] (puzzle: Same State 1) | nM | 1240 |

Challenge: Recall and state the measured apparent KD of MS2 coat protein for AAAAGACAUGAGGAUCACCCAUGUAUGAAAAGUACAGGAUAUCACGAGCUAAAGUGCGAGUGAGAAGGGUGAAAAU [Araceesge] (puzzle: Same State 1) .
Response given: 37.1

---

System: K4 kissing-loop RNA reporter;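 also: bound reporter read as fluorescence of individual clusters on recovered sequencing chips by microscopy, with normalized cluster intensities fitted with a binding model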
Assay: apparent KD of K4 kissing-loop reporter; higher = weaker reporter binding
Conditions: Eterna round: R107; input ligand: tryptophan 2.4 mM
TEST READOUT: apparent KD of K4 kissing-loop reporter (nM)
Give bare numbers, in nM.

| RESIDUES | EXPERIMENTAL SYSTEM | QUANTITY UNIT | DATA VALUE |
| --- | --- | --- | --- |
| AUGUAUAUCUCAGGAUAUAUAUGUGUGUGGUGUAUACAUAGUGAUGUUGUGUAUAUCCACAUAUGUAUAGAAGGGAGAUGUGCAU [Skye_SS_FMNB] | K4 kissing-loop RNA reporter | nM | 72 |
| GGACUACUAUGUCCCAUACAAACAAGAGAUACCAGCCAUCAUAGAGGCCCUUGGCAGCUCAUAUAAUCCAGUGAUGUUGGAUUUC [Beveus] | K4 kissing-loop RNA reporter | nM | 132 |
| UGGGAUGUUAAAGGAUAUAGAAAGUGAUAUUAGAAAGUGAGUGAUGUUGAUGUAAGUGAUGAUAUGUUAGAAGGUUAACAAAACG [abcd] | K4 kissing-loop RNA reporter | nM | 379 |

Items follow; give apparent KD of K4 kissing-loop reporter for each.
1. AAGUACACGAUAGUGUACACCUAGUGAUGUUAGGAUAUGCAGAUAUGCAGAAGGAGCAAGUCAUCUGACAAUAGUCGGAUGACAA [FmnAX 7 #OpenEnded #K4Early]
2. GGUGUUGUUUGUGCUGUUUUCUUCGUUUCUCGAGGACCGGUACGGCCGCCACUCGAGUGAUGUUUGGGUAGCGAUCUUUGUUAGU [Bdazzled - #4- Exc. Tryptophan A]
3. AUGUACACGAUAGUGUACUCCUAGUGAUGUUAGGAUAUGCAGAUAUGCAGAAGGGACAAGUCAUCUGACAAUAGUCGGAUGACAA [FmnAX 10 #OpenEnded #K4Early]
4. GUGCGCGCGGCGGCCGCCACUCGCAUGAGAGUGAUGUUCUCGGGACUGACGGAAGUCAGUCAUGGGAGGACCGGGCCGGGCUGCG [#2 Same State - Tryptophan B Attempt #13 (HarryS)]
5. UUUUUAUGCAGUGAUGUUGCUAAUAUAACAGAGGAUAUGCAUUAAUGCAGAAGGCUGAAAUACUAUACUUUAAUAUAUUAAAUUU [JR_SSFMNA_Sub015]
6. CCUAUCUGUUACGAUACCAGUCAAUGAUAUUUUAUCAAUGCCCUCACCGAGUGAUGUUCGGACCCUUGGCAGCGUCUGGGAUAGG [tyygpimullin]

Response given:
1: 80.2; 2: 385; 3: 91.5; 4: 521; 5: 99.5; 6: 151

Items follow; give apparent KD of K4 kissing-loop reporter for each.
1. UAAUAUCAACUUGUAGGAGUGAUGUUCCGCCGAGGACCGGUACGGCCGCCACUCGACAAAAUCUCAGUGUGGUACCUAGGAAUUU [theeternabot_exclusion_KL_Trp_A_24]
2. AACUGUCAAGGCCAACAUUACUGAGGUGAUACCAGCAUCGAAAGAUGCCCUUGGCAGCACCAACUUGCAGUGAUGUUGCAAGUAA [BrourdMod 13 - Jieux - Exclusion - Theophylline A]
3. UUUAUAAAGUCGGCCGCCACUGGAUUUAUAUUUGUUUAAUCUGGAUCAAAGUGAUGUUUUGAGUCCAGGACCGGGACAUUUGUUA [JR_ExcTryptoB_Sub002]

Response given:
[431, 225, 232]

Items follow; give apparent KD of K4 kissing-loop reporter for each.
1. GCUAUGGUAGGAAGGAGCGCUGCCUUGUUUUUACGAGUGAUGUUCGGAAGCAGGGCGUUAAAGCAGGUAGGUCGCCUACUAUAGC [Arginine B K4 22]
2. AAGGUCACCACUACAGUGAUGUUGUGGGAGCAGGAUAUGCAGAAAUGCAGAAGGGCUCGCUCCCGGUGACCGAAUGAAACAUUCA [Omei KL FMN A SS A v5]

Response given:
1. 146
2. 846

Items follow; give apparent KD of K4 kissing-loop reporter for each.
1. GGGAGGAGUGGUGUUGAUUAGGGAGCGGAAGGAGCGCCGAAGAAGGCAGGUAGGUCGCCGGAAUAUAGUGAUGUUAUAUAGAGGG [ExArg.G]
2. AAAUAAAUCACGGCCGCCACUGCUAGAGUGAUGUUCUAUUAAUAAUUUCUAAAUUAUAUAAUACUCAGGACCGGGUGAUUUUUAA [JR_SSTryptoB_Sub020]

Response given:
1: 201; 2: 446

---

Would you mind telling me the reported apparent KD of MS2 coat protein of each entry?
Tested on: MS2 coat protein
Experiment: apparent KD of MS2 coat protein, switch OFF state (with FMN for OFF switches, without FMN for ON switches); designed switch direction (-1 OFF switch, 1 ON switch): 1; higher = weaker reporter binding
Settings: FMN input: 0 or 200 uM; Eterna round: R93 (includes R88 designs)
Write the numeric value and append its unit.

Items follow; give apparent KD of MS2 coat protein for each.
1. GAUAGACAUGAGGAUCACCCAUGUAGAAUUAUGGGAGGAUAUACAAAGACGAGAGUCAGAGUAGAAGGCCUAGGAG [salish99-ss1-158]
2. AAUCCAACUAGUCAGGAUAUCAGGCGUAAGACAUGAGGAUCACCCAUGUACUUAGUACAAGUAACUGAGAAGGGACAGGGUGACC [JR_SS002_Sub409]
3. GAAAUAAAAACACAGGAUAUCCAAAAGAAAACAUGAGGAUCACCCAUGUAAAGAAAAUAAAAAUGGGAGAAGGGUGAAAUAAAAA [Mat - Same State 2 - JL mod - D27]
4. ACAAAACAUGAGGAUCACCCAUGUCAGAAAUGGCAAGGAUAUAGAAAACAAAAACAAAAACUAGAAGGUGCAAAAC [Meechl SS1 R2 m3]
5. AUAAAAUAAAAUGAGGAUAUCUAUAAUAAAACAUGAGGAUCACCCAUGUUUAAACAAAGAUCAUGGGAGAAGGCAUAAAAUAAAU [SS2 M 40]

Response given:
1. 0.0692 µM
2. 0.0755 µM
3. 0.0338 µM
4. 0.154 µM
5. 0.014 µM

Items follow; give apparent KD of MS2 coat protein for each.
1. AUAAAACAUGAGGAUCACCCAUGUAGAAAUAUGGGAGGAUAUACUAGAUCGAAAGAUCUAGUAGAAGGCCUUAAAG [JL Mod of Eli 3]
2. GAAAAACAUGAGGAUCACCCAUGUGGAAAUAUGGGAGGAUAUACAAAGACGUAAGUCAAAGUAGAAGGCCUAAAAG [Garnet 94]
3. AAUAAACAUGAGGAUCACCCAUGUGAAAAUAUGGGAGGAUAUAGGAAAAAAAAAAAAAAACUAGAAGGCCCAAAAA [SS! 1 MT 12]
4. AAGAAACAUGAGGAUCACCCAUGUGAUAAUAUGGGAGGAUAUACAAAGACGAAAGUCGAAGUAGAAGGCCUAUGAA [Garnet 43]

Response given:
1. 0.0526 µM
2. 0.177 µM
3. 0.138 µM
4. 0.062 µM

Items follow; give apparent KD of MS2 coat protein for each.
1. AAAGAAAAACUAGAGGAUAUCCGAGUGGUAACAUGAGGAUCACCCAUGUGAAGAAAGGAGCGUGAGGAGAAGGCUAGAAGAAAAA [JL Nando mod 24]
2. UUUAGGAAGAGAGAGGAUAUCCAAAGGAAAACAUGAGGAUCACCCAUGUAAAAGGUAGGAAAUUGGGAGAAGGCUCAAGAGAGAG [salish99-ss2-078]
3. CGGGCCCGGGCGCAGGAUAUCUGAAAAAAAACAUGAGGAUCACCCAUGUGUGGGAAAAAAAAAAAAGAGAAGGGCGCCCGGGCCC [Natural State 2 -38.15 -4 kcal]
4. GAAGACAUAGUUCAGGAUAUAGGAAUAGUCACAUGAGGAUCACCCAUGUGCAUUUAUAUGCGCGCUUAGAAGGGAGGUAGUUAUA [SameState2 Malc#21]
5. AGGAGACAUGAGGAUCACCCAUGUGAGAAGAGGCGAGGAUAUCGAAAAAAAAAAAAAAAACGAGAAGGCGCGAGAA [SameState1]
6. AUAAAUAAAAUAGAGGAUAUCCAAAACAAAACAUGAGGAUCACCCAUGUAAAAGAAAAUAAAAUGGGAGAAGGCUACAAAUAAAU [SS2 M 3]

Response given:
["0.146 µM", "0.0165 µM", "0.0486 µM", "0.0239 µM", "0.0582 µM", "0.0305 µM"]
